This document collects IZ values reported for Dihydrofolate reductase (Saccharomyces cerevisiae S288c) (UniProt P07807).
Quick note: give the figure in mm, leave out the unit.

Asked: Given Nc1nc(N)c(-c2ccc(Cl)cc2)c(CC[C@@H](O)[C@@H](O)CO)n1 , state its recorded IZ.
Given back: 7

Asked: Given Nc1nc(N)c(-c2ccc(Br)cc2)c(CC[C@@H](O)[C@@H](O)CO)n1 , state its recorded IZ.
Given back: 8

Asked: Given Nc1nc(N)c(-c2ccc(Cl)cc2)c(CC[C@H](O)[C@@H](O)CO)n1 , state its recorded IZ.
Given back: 6

Asked: Given Nc1nc(N)c(-c2ccc(Cl)c(Cl)c2)c(CC[C@@H](O)[C@@H](O)CO)n1 , state its recorded IZ.
Given back: 8

Asked: Given Nc1nc(N)c(-c2ccccc2)c(CC[C@H](O)[C@@H](O)CO)n1 , state its recorded IZ.
Given back: 8

Asked: Given Nc1ncc(-c2ccccc2)c(CCc2ccccc2)n1 , state its recorded IZ.
Given back: 5

Asked: Given Nc1nc(N)c(-c2ccc(Cl)c(Cl)c2)c([C@H](O)[C@H](O)CO)n1 , state its recorded IZ.
Given back: 7

Asked: Given Nc1nc(N)c(-c2ccc(Cl)cc2)c(CCCCCO)n1 , state its recorded IZ.
Given back: 8

Asked: Given Nc1nc(N)c(-c2ccccc2)c(CC[C@@H](O)[C@@H](O)CO)n1 , state its recorded IZ.
Given back: 6

Asked: Given Nc1nc(N)c(-c2ccc(Br)cc2)c([C@H](O)[C@H](O)CO)n1 , state its recorded IZ.
Given back: 5
